test system: VDR homodimer (NR concentration 270 nM); experiment: PBM binding z-score (relative to random genomic background probes); higher = stronger binding; sequences stand for … in GC…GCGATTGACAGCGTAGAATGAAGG
Ranges used to classify PBM binding z-score: bottom range: < 0.4; center range: ≥ 0.4 and < 2; top range: ≥ 2

residues=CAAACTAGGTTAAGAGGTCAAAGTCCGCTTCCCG assay_target="VDR homodimer (NR concentration 270 nM)" assigned_category="top range"
residues=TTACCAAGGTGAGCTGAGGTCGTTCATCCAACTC assay_target="VDR homodimer (NR concentration 270 nM)" assigned_category="top range"
residues=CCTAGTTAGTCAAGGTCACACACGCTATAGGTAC assay_target="VDR homodimer (NR concentration 270 nM)" assigned_category="top range"
residues=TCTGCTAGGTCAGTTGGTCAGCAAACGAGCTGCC assay_target="VDR homodimer (NR concentration 270 nM)" assigned_category="bottom range"
residues=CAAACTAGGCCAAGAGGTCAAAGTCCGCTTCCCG assay_target="VDR homodimer (NR concentration 270 nM)" assigned_category="top range"
residues=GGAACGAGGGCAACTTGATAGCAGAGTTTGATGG assay_target="VDR homodimer (NR concentration 270 nM)" assigned_category="center range"
residues=CGTCAAAGTTCAACTAAGGTATCGTAAAGCACGC assay_target="VDR homodimer (NR concentration 270 nM)" assigned_category="top range"
residues=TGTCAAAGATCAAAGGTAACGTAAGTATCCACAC assay_target="VDR homodimer (NR concentration 270 nM)" assigned_category="bottom range"
residues=TCTAGCAGGCCAGAGGGTCACTGAAGAGGTACGG assay_target="VDR homodimer (NR concentration 270 nM)" assigned_category="bottom range"
residues=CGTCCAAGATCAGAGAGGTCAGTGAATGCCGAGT assay_target="VDR homodimer (NR concentration 270 nM)" assigned_category="top range"
residues=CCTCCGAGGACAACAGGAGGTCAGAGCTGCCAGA assay_target="VDR homodimer (NR concentration 270 nM)" assigned_category="center range"
residues=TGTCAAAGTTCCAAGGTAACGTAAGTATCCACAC assay_target="VDR homodimer (NR concentration 270 nM)" assigned_category="bottom range"
residues=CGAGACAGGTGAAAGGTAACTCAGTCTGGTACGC assay_target="VDR homodimer (NR concentration 270 nM)" assigned_category="bottom range"
residues=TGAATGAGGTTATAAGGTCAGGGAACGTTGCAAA assay_target="VDR homodimer (NR concentration 270 nM)" assigned_category="center range"
residues=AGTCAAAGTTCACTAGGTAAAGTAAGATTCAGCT assay_target="VDR homodimer (NR concentration 270 nM)" assigned_category="top range"
residues=CGAACTAGGTCATTGACAGGACAGTGATTAGTAA assay_target="VDR homodimer (NR concentration 270 nM)" assigned_category="center range"
residues=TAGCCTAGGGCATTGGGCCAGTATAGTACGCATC assay_target="VDR homodimer (NR concentration 270 nM)" assigned_category="bottom range"
residues=CGAACTAGGTCAGAACAGGACAGGGAAGGATGAT assay_target="VDR homodimer (NR concentration 270 nM)" assigned_category="center range"
residues=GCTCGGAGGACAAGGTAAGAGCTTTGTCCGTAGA assay_target="VDR homodimer (NR concentration 270 nM)" assigned_category="bottom range"
residues=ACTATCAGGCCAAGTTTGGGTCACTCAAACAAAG assay_target="VDR homodimer (NR concentration 270 nM)" assigned_category="center range"
residues=ATATGTAGGTTACATCCGGGTCATTCCGGCTATG assay_target="VDR homodimer (NR concentration 270 nM)" assigned_category="top range"
residues=GATAGAGGGTCAAGGCCAGAGTACGCGTATTGAT assay_target="VDR homodimer (NR concentration 270 nM)" assigned_category="center range"
residues=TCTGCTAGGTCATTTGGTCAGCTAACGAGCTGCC assay_target="VDR homodimer (NR concentration 270 nM)" assigned_category="center range"
residues=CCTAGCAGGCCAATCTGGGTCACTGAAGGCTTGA assay_target="VDR homodimer (NR concentration 270 nM)" assigned_category="bottom range"
residues=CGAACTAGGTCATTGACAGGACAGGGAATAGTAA assay_target="VDR homodimer (NR concentration 270 nM)" assigned_category="center range"
residues=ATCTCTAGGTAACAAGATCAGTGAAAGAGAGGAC assay_target="VDR homodimer (NR concentration 270 nM)" assigned_category="bottom range"
residues=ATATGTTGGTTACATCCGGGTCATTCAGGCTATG assay_target="VDR homodimer (NR concentration 270 nM)" assigned_category="top range"
residues=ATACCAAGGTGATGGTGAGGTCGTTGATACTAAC assay_target="VDR homodimer (NR concentration 270 nM)" assigned_category="top range"
residues=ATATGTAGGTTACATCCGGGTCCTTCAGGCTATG assay_target="VDR homodimer (NR concentration 270 nM)" assigned_category="center range"
residues=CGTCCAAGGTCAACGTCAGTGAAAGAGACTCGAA assay_target="VDR homodimer (NR concentration 270 nM)" assigned_category="center range"
residues=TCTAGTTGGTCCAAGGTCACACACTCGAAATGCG assay_target="VDR homodimer (NR concentration 270 nM)" assigned_category="top range"
residues=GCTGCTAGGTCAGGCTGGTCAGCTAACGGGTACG assay_target="VDR homodimer (NR concentration 270 nM)" assigned_category="bottom range"
residues=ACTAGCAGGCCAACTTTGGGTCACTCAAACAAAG assay_target="VDR homodimer (NR concentration 270 nM)" assigned_category="bottom range"
residues=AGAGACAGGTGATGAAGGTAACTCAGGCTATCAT assay_target="VDR homodimer (NR concentration 270 nM)" assigned_category="bottom range"
residues=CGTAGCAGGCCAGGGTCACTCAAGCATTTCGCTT assay_target="VDR homodimer (NR concentration 270 nM)" assigned_category="center range"
residues=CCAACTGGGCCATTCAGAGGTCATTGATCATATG assay_target="VDR homodimer (NR concentration 270 nM)" assigned_category="top range"
residues=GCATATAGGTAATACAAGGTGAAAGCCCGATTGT assay_target="VDR homodimer (NR concentration 270 nM)" assigned_category="bottom range"
residues=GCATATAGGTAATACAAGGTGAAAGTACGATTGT assay_target="VDR homodimer (NR concentration 270 nM)" assigned_category="bottom range"
residues=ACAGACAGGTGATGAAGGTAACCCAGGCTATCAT assay_target="VDR homodimer (NR concentration 270 nM)" assigned_category="bottom range"
residues=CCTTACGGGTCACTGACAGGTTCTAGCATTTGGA assay_target="VDR homodimer (NR concentration 270 nM)" assigned_category="center range"
residues=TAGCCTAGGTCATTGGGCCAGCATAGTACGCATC assay_target="VDR homodimer (NR concentration 270 nM)" assigned_category="center range"
residues=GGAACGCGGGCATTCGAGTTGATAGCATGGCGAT assay_target="VDR homodimer (NR concentration 270 nM)" assigned_category="bottom range"
residues=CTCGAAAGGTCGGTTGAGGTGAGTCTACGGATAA assay_target="VDR homodimer (NR concentration 270 nM)" assigned_category="center range"
residues=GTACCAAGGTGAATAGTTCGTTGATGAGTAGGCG assay_target="VDR homodimer (NR concentration 270 nM)" assigned_category="center range"
residues=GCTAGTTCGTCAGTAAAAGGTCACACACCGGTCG assay_target="VDR homodimer (NR concentration 270 nM)" assigned_category="top range"
residues=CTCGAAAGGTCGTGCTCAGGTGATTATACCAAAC assay_target="VDR homodimer (NR concentration 270 nM)" assigned_category="center range"
residues=GCTGCTAGGTCGGGTTGGTCAGCTAACGGGTACG assay_target="VDR homodimer (NR concentration 270 nM)" assigned_category="center range"
residues=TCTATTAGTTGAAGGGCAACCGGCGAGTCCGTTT assay_target="VDR homodimer (NR concentration 270 nM)" assigned_category="center range"
residues=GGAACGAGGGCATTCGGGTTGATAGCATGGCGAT assay_target="VDR homodimer (NR concentration 270 nM)" assigned_category="top range"
residues=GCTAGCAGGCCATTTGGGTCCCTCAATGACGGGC assay_target="VDR homodimer (NR concentration 270 nM)" assigned_category="bottom range"
